Reference source for all entries: ChEMBL document CHEMBL1140679

The following are reported pIC50 results, target or system Procathepsin L (Rattus norvegicus).
Give bare numbers, as −log10 of the molar value.

record_smiles: CS(=O)(=O)C[C@H](N[C@@H](c1ccc(Br)cc1)C(F)(F)F)C(=O)NC1(C#N)CC1
reported_measurement: 5.89

record_smiles: N#CC1(NC(=O)[C@H](CS(=O)(=O)CC2CC2)N[C@@H](c2ccc(F)cc2)C(F)(F)F)CC1
reported_measurement: 6.13

# context switch: different compound, same pIC50
Query string: # pIC50 lookup, item N#CC1(NC(=O)[C@H](CS(=O)(=O)c2ccc(Cl)c(Cl)c2)N[C@@H](c2ccccc2)C(F)(F)F)CC1
Result string: 7.32

* * *

- test_method_notes: Bioavailability in Sprague-Dawley rat
- Type: ADME, organism-based
- test_context: in vivo
Label Fulfilled for high-side bioavailability (at or above 9%) and Not fulfilled for low-side bioavailability (below it).

record_smiles: N#CC1(NC(=O)[C@H](CS(=O)(=O)Cc2cccc(F)c2F)N[C@@H](c2ccc(F)cc2)C(F)(F)F)CC1
category: Not fulfilled
--
record_smiles: N#CC1(NC(=O)[C@H](CS(=O)(=O)CC2CC2)N[C@@H](c2ccc(F)cc2)C(F)(F)F)CC1
category: Fulfilled
--
record_smiles: CC(C)CS(=O)(=O)C[C@H](N[C@@H](c1ccc(F)cc1)C(F)(F)F)C(=O)NC1(C#N)CC1
category: Not fulfilled

Query string: Is reported bioavailability greater than or equal to 9% here: CS(=O)(=O)C[C@H](N[C@@H](c1ccc(Br)cc1)C(F)(F)F)C(=O)NC1(C#N)CC1
Result string: Fulfilled

Query string: Kindly determine if bioavailability recorded for CS(=O)(=O)C[C@H](N[C@@H](c1ccc(F)cc1)C(F)(F)F)C(=O)NC1(C#N)CC1 is above or exactly 9%.
Result string: Fulfilled

* * *

- experimental_system: Cathepsin S (Rattus norvegicus)
- Sequence (Q02765 whole entry): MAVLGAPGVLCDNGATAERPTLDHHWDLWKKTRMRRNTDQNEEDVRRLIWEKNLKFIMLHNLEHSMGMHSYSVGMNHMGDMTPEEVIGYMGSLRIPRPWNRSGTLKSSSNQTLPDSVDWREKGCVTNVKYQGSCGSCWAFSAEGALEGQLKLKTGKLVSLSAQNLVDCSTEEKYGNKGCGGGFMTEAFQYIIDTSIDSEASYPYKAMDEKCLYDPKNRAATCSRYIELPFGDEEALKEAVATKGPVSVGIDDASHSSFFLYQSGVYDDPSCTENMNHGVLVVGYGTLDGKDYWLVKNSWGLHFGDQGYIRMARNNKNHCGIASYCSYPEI
- test_method_notes: Inhibition of rat spleen cathepsin S
- Type: tissue-based
Would you kindly list IC50 for each of these molecules?

Take a look at these entries with their results.
molecule: CC(C)C[C@@H](NC(=O)N1CCOCC1)C(=O)N[C@@H](/C=C/S(=O)(=O)c1ccccc1)CCc1ccccc1
IC50: 1.7 nM
//
molecule: N#CC1(NC(=O)[C@H](CS(=O)(=O)c2cccc(Br)c2)N[C@@H](c2ccccc2)C(F)(F)F)CC1
IC50: 44 nM
//
molecule: N#CC1(NC(=O)[C@H](CS(=O)(=O)c2ccc(Br)cc2)N[C@@H](c2ccccc2)C(F)(F)F)CC1
IC50: 66 nM
//
molecule: N#CC1(NC(=O)[C@H](CS(=O)(=O)CC2CC2)N[C@@H](c2ccc(F)cc2)C(F)(F)F)CC1
IC50: 759 nM
//
molecule: C[S+]([O-])C[C@H](N[C@@H](c1ccc(F)cc1)C(F)(F)F)C(=O)NC1(C#N)CC1 (stereo partly specified)
IC50: > 10000 nM

Could you now consider this next molecule?
Query string: I am curious: what IC50 value has been reported for CC(C)C[C@H](N[C@@H](c1ccc(-c2ccc(S(C)(=O)=O)cc2)cc1)C(F)(F)F)C(=O)NCC#N ?
Result string: 2440 nM

* * *

- test_method_notes: Cmax in Sprague-Dawley rat
- Assay type: ADME, organism-based
- test_context: in vivo
Mark Criterion met for Cmax under 0.1 µM, Criterion not met if at or over.

record_smiles: N#CC1(NC(=O)[C@H](CS(=O)(=O)CC2CC2)N[C@@H](c2ccc(F)cc2)C(F)(F)F)CC1
category: Criterion not met

Query string: Report whether reported Cmax is lower than 0.1 µM (strictly) for CC(C)CS(=O)(=O)C[C@H](N[C@@H](c1ccc(F)cc1)C(F)(F)F)C(=O)NC1(C#N)CC1
Result string: Criterion not met

Query string: Is it true that Cmax reported for N#CC1(NC(=O)[C@H](CS(=O)(=O)c2ccc(Cl)c(Cl)c2)N[C@@H](c2ccccc2)C(F)(F)F)CC1 is less than 0.1 µM?
Result string: Criterion met

Query string: Consider N#CC1(NC(=O)[C@H](CS(=O)(=O)Cc2cccc(F)c2F)N[C@@H](c2ccc(F)cc2)C(F)(F)F)CC1 . Does its Cmax lie strictly below 0.1 µM?
Result string: Criterion met

Query string: Please let me know if CS(=O)(=O)C[C@H](N[C@@H](c1ccc(F)cc1)C(F)(F)F)C(=O)NC1(C#N)CC1 shows Cmax below 0.1 µM.
Result string: Criterion not met

Query string: Please state whether Cmax is below 0.1 µM for CS(=O)(=O)C[C@H](N[C@@H](c1ccc(Br)cc1)C(F)(F)F)C(=O)NC1(C#N)CC1
Result string: Criterion not met

* * *

- experimental_system: Cathepsin B (Homo sapiens)
Would you mind telling me the reported IC50 of each entry?

These recorded examples may help you get a feel for the data.
record_smiles: N#CC1(NC(=O)[C@H](CS(=O)(=O)CC2CC2)N[C@@H](c2ccc(F)cc2)C(F)(F)F)CC1
experimental_system: Cathepsin B (Homo sapiens)
reported_measurement: 1 µM
//
record_smiles: N#CC1(NC(=O)[C@H](CS(=O)(=O)c2nc3ccccc3s2)N[C@@H](c2ccccc2)C(F)(F)F)CC1
experimental_system: Cathepsin B (Homo sapiens)
reported_measurement: 2.97 µM
//
record_smiles: N#CC1(NC(=O)[C@H](CS(=O)(=O)c2ccc(F)cc2)N[C@@H](c2ccc(F)cc2)C(F)(F)F)CC1
experimental_system: Cathepsin B (Homo sapiens)
reported_measurement: 7.28 µM
//
record_smiles: N#CC1(NC(=O)[C@H](CS(=O)(=O)c2ccc(Br)cc2)N[C@@H](c2ccccc2)C(F)(F)F)CC1
experimental_system: Cathepsin B (Homo sapiens)
reported_measurement: 3.45 µM

Consider the following items and state reported IC50 for each.
1. N#CC1(NC(=O)[C@H](CS(=O)(=O)Cc2c(F)cccc2F)N[C@@H](c2ccc(F)cc2)C(F)(F)F)CC1
2. CC(C)C[C@@H](NC(=O)N1CCOCC1)C(=O)N[C@@H](/C=C/S(=O)(=O)c1ccccc1)CCc1ccccc1
3. CS(=O)(=O)C[C@H](N[C@@H](c1ccccc1)C(F)(F)F)C(=O)NC1(C#N)CC1
4. N#CC1(NC(=O)[C@H](CS(=O)(=O)Cc2ccc(F)cc2)N[C@@H](c2ccccc2)C(F)(F)F)CC1
5. N#CC1(NC(=O)[C@H](CS(=O)(=O)Cc2ccccc2-c2ccccc2)N[C@@H](c2ccc(F)cc2)C(F)(F)F)CC1

Result string:
> 10 µM
4.5 µM
1.98 µM
2.78 µM
4.04 µM

* * *

Target chain: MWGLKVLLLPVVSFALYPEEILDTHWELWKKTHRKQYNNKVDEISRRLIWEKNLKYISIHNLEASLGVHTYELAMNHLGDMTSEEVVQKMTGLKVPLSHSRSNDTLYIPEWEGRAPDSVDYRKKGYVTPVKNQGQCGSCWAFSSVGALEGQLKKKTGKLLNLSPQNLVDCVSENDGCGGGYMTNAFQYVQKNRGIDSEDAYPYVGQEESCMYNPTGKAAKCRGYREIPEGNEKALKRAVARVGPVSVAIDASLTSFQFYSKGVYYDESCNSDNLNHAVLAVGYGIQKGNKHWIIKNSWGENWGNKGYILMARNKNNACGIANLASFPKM
assay_metric: pIC50
One number for each entry, as −log10 of the molar value.

Example entries begin here.
record_smiles: N#CC1(NC(=O)[C@H](CS(=O)(=O)c2ccc(Cl)c(Cl)c2)N[C@@H](c2ccccc2)C(F)(F)F)CC1
reported_measurement: 6.50
//
record_smiles: CS(=O)(=O)C[C@H](N[C@@H](c1ccccc1)C(F)(F)F)C(=O)NC1(C#N)CC1
reported_measurement: 6.85
//
record_smiles: CS(=O)(=O)C[C@H](N[C@@H](c1ccc(-c2ccc(F)cc2)cc1)C(F)(F)F)C(=O)NC1(C#N)CC1
reported_measurement: 8.28
//
record_smiles: CC(C)CS(=O)(=O)C[C@H](N[C@@H](c1ccc(F)cc1)C(F)(F)F)C(=O)NC1(C#N)CC1
reported_measurement: 5.51
//
record_smiles: N#CC1(NC(=O)[C@H](CS(=O)(=O)c2ccc(Br)cc2)N[C@@H](c2ccccc2)C(F)(F)F)CC1
reported_measurement: 6.54
//
record_smiles: CS(=O)(=O)C[C@H](N[C@@H](c1ccc(Br)cc1)C(F)(F)F)C(=O)NC1(C#N)CC1
reported_measurement: 7.51

Consider the following items and state reported pIC50 for each.
1. N#CC1(NC(=O)[C@H](CS(=O)(=O)c2cccc(Br)c2)N[C@@H](c2ccccc2)C(F)(F)F)CC1
2. CC(C)C[C@H](N[C@@H](c1ccc(-c2ccc(S(C)(=O)=O)cc2)cc1)C(F)(F)F)C(=O)NC1(C#N)CC1

Result string:
6.57
9.52

Below are 2 compounds. Give each one its pIC50.
1. N#CC1(NC(=O)[C@H](CS(=O)(=O)c2ccc(F)cc2)N[C@@H](c2ccc(F)cc2)C(F)(F)F)CC1
2. CS(=O)(=O)C[C@H](N[C@@H](c1cccc(F)c1)C(F)(F)F)C(=O)NC1(C#N)CC1

Result string:
[6.52, 6.50]

Count: 3. Required value per item: pIC50.
1. N#CC1(NC(=O)[C@H](CS(=O)(=O)CC2CC2)N[C@@H](c2ccc(F)cc2)C(F)(F)F)CC1
2. N#CC1(NC(=O)[C@H](CS(=O)(=O)c2nc3ccccc3s2)N[C@@H](c2ccccc2)C(F)(F)F)CC1
3. CS(=O)(=O)C[C@H](N[C@@H](c1ccc(F)cc1)C(F)(F)F)C(=O)NC1(C#N)CC1

Result string:
1. 5.70
2. 6.08
3. 6.39
